test: yeast display, Sf9 membrane polyspecificity reagent, FACS + sequencing; frameworks hold sequencing errors
ASSAY READOUT: polyreactivity (PSR sort gate)

1) QVQLVESGGGLVQAGGSLRLSCAASGYIFPYYTMGWYRQAPGKERELVAAITIGGSTYYADSVKGRFTISRDNAKNTVYLKMNSLKPEDTAVYYCAAKYYDYLYRYIMEYWGQGTQVTVSS :: low polyreactivity
2) QVQVVESGGGLVQAGGSLRLSCAASGGTFSPYDMGWYRQAPGKERELVASITRSGGSTYYADSVKGRFTISRGNSKNTVYLQMNSLKPEDTAVYYCAAQGYWTYWPYLLRLYDYWGQGTQVTVSS :: low polyreactivity
3) QVQHVESGGGLVQAGGSLRLSCAASGITFSFYAMGWYRQAPGKERELVAAINGRGGRTYYADSVKGRFTISRDNAKNTVYLQMNSLKPEDTAVYYCAAVVWSTDYDYWGQGTQVTVSS :: low polyreactivity
4) QVQLVESGGGLVQAGGSLRLSCAASGLTFYSNAMGWYIQAPGKERELVASISKRGATTYYADSVKGRFTISRDIAKYTVYLQMNSQKAEDTAVYYCAAEYLRNQELGYQGVAILYVFWGQGTQVTVSS :: low polyreactivity
5) QVQLVESGGGLVQAGGSLRLSCAASGFTFDWYAMGWYRPAPGKERELVAAISSGGNTKYADSVKGRFTISRDNAKNTVYLQMNSLKPEDTAVYYCAARLYYSLSYYYWGQGTQVTVAS :: high polyreactivity
6) QVQLVESGGGLVQAGGSLRLSCAASGIIFGYYAMGWYRQAPGKVRELVAAISWSGGSTYYADSVKGRFTFSRDNAKNTVYLQMNSLKPEDTAVYYCNAVYVSYTYQQTRSGGYDYWGQGTQVTVSS :: high polyreactivity
7) QVQLVESGGGLVQAGGSLRLSCAASGINFRTYAMGWYRQAPGKERELVAAINSDGSTYYADSVKGRFTISRDNAKITVYLQMNSLKPEDNAVYYCAAVVWRIHAYYWAVDGWYYYWGQGTQVTVSS :: high polyreactivity
8) QVQLVESGGGLVQAGGSLRLSCAASGFTRIYAMGWYRQAPGKERELVAAISQRGGRTYYADSVKGRFTISRDNAKNTVYLQMNSLKPEDTAVYYCAVRGPYQGRTRYYYWGQGTQVTVSS :: high polyreactivity
9) QVQLVESGGGLVQAGGSLRLSCAASGNIFDGNAMGWYRQAPGKERELVAAITSSGDSTYYADSVKGRFTISRDNAKNTVYLLMNSLKPEDTAVYYCAAGYRWGYYYWGQGTQVTVSS :: high polyreactivity
10) QVQLVESGGGLVQAGCSLRLICAASGIIFVGYAMGWYRQAPGKDRELVAGINSGGSTNYADSVKGRFTISRDNAKNTVYLQMNSLKPEDTAVYYCAAYPYYYYGYDYWGQGTQVTVSS :: low polyreactivity
11) QVQLVESGGGLVQAGGSLRLSCAASGGTFRVYAMGWYRKAPGKERELVAAITGRGGSTYYADSVKGRFTISRDNAKNTVYLQMNSLKPEDTAVYDCAKDPVTTYYKYDYWGQGTQVTVSS :: low polyreactivity

---

assay: yeast display, Sf9 membrane polyspecificity reagent, FACS + sequencing; frameworks hold sequencing errors
ASSAY READOUT: polyreactivity (PSR sort gate)

1. QVQLVESGGGLVQAGGSLRLSCAASGSMFYFYAMGWYRQAPGKERELVAAISWCDGDTYYADSVKGRFTISRDNAKNTVYLQMNSLKPEDSAVYYCAAEGLTRYYQYDYWGQGTQVTVSS :: high polyreactivity
2. QVQLLESGGGLVQAGGSLRLSCASSGFTFGWYAMGWYRPAPGKERDLVAAISYSGGSTYYADSVKGRFTISRDNAKNTVYLQMNSLKPEDTAVYYCAAKARRPYSYHPYDYWGQGTQVTVSS :: high polyreactivity
3. QVQLVESGGGLVQAGGSLRLSCAASGSTLSIYAMGWYRQAPGKERELVAAISSIGGSTYYADSVKGRFTISRDNAKNTVYLQMNSLKPEDTAVYYCAAELYGGYYYWGQGTQVTVSS :: high polyreactivity

Attribution: the nanobody polyreactivity screen of Harvey et al. (2022)
